Test system: pERK in NCI-H358 cells
METHOD NOTES: Cell-based pERK HTRF assay (pERK inhibition in H358 cells)
ASSAY SETUP: Homo sapiens, NCI-H358, 0.5 h, 30 min incubation
# IC50 per record follows

Recorded IC50, per entry:
C=CC(=O)N1CC[C@@H](N(CC)c2nc(OC[C@@H]3C[C@@H](F)CN3C)nc3c(F)c(-c4ccc(F)c5sc(N)c(C#N)c45)c(Cl)cc23)[C@H]1C; < 100 nM
C=CC(=O)N1CC[C@@H](N(C)c2nc(OC[C@@]34CCCN3C[C@H](F)C4)nc3cc(-c4ccc(F)c5sc(N)c(C#N)c45)c(F)cc23)[C@H]1CC; < 100 nM

Turning now to a further compound:
Lookup: Record [2H]C1([2H])CCC2(C([2H])([2H])Oc3nc(N4CC(C)N(C(=O)C=C)CC4C)c4cc(C(F)(F)F)c(-c5ccc(F)c6sc(N)c(C#N)c56)c(F)c4n3)CC(F)CN12 (stereo not drawn) : what is its IC50 with pERK in NCI-H358 cells?
Found: < 100 nM

Where do these numbers come from? They come from patent US20260232666A1.
